As shown below, each of these sequences has a reported log2 fold change of degron read counts value.
target: T1, CRBN, Q96SW2;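 further: pooled lentiviral library of zinc finger degron-EGFP fusions in mCherry-positive Jurkat cells, FACS-sorted after compound exposure, with degron abundance counted by next-generation sequencing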
T1 chain: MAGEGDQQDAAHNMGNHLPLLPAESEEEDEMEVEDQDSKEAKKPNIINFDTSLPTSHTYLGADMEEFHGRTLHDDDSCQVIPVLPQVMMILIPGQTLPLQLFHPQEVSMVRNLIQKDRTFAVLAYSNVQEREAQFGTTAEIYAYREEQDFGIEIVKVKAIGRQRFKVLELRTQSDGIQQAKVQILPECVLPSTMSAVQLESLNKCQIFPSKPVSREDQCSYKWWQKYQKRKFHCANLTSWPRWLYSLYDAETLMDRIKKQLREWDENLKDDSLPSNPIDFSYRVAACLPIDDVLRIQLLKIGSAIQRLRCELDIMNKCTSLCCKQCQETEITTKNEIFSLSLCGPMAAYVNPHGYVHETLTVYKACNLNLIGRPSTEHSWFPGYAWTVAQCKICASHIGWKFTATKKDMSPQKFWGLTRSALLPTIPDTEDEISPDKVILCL
experiment: log2 fold change of degron read counts, EGFP-low vs EGFP+ sorted cells (limma voom), compound-induced degradation; higher = more compound-induced degradation of the degron-EGFP fusion; degrons are variants of IKZF1/3 zinc finger 2; compound dose not given here
applied_conditions: Jurkat; 18 h; compound: compound 22 (5-morpholino-thalidomide)
In all, about 8,300 sequences were measured (“log2 fold change of degron read counts, EGFP-low vs EGFP+ sorted cells (limma voom), compound-induced degradation”: median about -1.1, highest 2% from about 3.2 on). For the sample, the highest values were picked, then their nearest neighbours and some sequences at random.

# macromolecule_sequence, log2 fold change of degron read counts
data = [
    ("LWCPICGFCCTQKGNLLRHIKL [46L_47W_49P_50I_52G_53F_54C_55C_67L_, Q9UKT9]", 3.49),
    ("LLCPICGFCCTQKGNLLRHIKL [46L_47L_49P_50I_52G_53F_54C_55C_67L_, Q9UKT9]", 0.49),
    ("LFCPICGFCCTQKGNLLRHIKL [46L_47F_49P_50I_52G_53F_54C_55C_67L_, Q9UKT9]", 3.46),
    ("LICPICGFCCTQKGNLLRHIKL [46L_47I_49P_50I_52G_53F_54C_55C_67L_, Q9UKT9]", 1.98),
]
